Reference source: ChEMBL document CHEMBL3886759

system tested: Platelet-derived growth factor receptor beta (Homo sapiens, UniProt P09619)
Sequence (P09619 whole entry): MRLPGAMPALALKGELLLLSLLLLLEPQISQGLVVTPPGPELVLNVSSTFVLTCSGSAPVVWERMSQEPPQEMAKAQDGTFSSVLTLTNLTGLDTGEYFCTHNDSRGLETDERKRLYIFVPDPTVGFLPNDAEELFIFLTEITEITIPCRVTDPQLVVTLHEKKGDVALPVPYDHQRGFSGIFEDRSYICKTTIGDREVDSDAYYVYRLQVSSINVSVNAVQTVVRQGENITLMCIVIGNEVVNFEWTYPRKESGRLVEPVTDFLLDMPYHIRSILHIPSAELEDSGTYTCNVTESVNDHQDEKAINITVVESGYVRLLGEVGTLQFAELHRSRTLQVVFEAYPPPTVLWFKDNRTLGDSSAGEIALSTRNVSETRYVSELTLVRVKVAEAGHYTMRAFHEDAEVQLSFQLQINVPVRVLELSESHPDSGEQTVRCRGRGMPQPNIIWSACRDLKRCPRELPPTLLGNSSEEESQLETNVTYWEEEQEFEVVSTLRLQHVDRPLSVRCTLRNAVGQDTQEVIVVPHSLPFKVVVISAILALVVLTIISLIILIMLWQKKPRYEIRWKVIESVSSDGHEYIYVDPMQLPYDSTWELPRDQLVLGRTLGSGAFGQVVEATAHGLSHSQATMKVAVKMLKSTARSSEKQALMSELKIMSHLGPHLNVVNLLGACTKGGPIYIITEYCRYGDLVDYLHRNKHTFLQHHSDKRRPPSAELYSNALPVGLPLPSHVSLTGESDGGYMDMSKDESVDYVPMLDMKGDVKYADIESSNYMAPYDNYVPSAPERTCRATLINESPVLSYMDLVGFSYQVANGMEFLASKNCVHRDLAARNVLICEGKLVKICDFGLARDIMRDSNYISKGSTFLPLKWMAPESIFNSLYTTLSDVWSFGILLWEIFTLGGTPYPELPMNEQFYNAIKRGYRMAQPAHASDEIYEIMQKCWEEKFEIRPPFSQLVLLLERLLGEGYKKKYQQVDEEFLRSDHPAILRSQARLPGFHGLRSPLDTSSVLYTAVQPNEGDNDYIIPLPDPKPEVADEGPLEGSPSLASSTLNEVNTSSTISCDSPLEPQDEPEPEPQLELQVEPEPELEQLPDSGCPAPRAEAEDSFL
readout kind: pIC50
Scale explanation: pIC50 corresponds to minus log10 of a concentration expressed in moles per litre.

What value of pIC50 has been reported for the following compound? CCc1cccc(NC(=O)Nc2ccc(-c3cc4ccccc4n3C(N)=O)cc2)c1
8.00
